molecular target: cathepsin B (Homo sapiens); experiment: Inhibition of cathepsin B, incubation method; assay type: biochemical; conditions: pH 6; second-order rate constant; NI = no inhibition; read-out: kobs/[I] cathepsin B
Experimental Endpoint: kinact/KI (M⁻¹ s⁻¹)
Answers are plain numbers, in M⁻¹ s⁻¹.

A selection of reference data follows.
CCCC[C@H](NC(=O)OC(C)(C)C)C(=O)NN(CCc1ccccc1)C(=O)[C@@H]1O[C@H]1C(=O)OCC (relative stereo) [Boc-Nle-AHph-trans-EP-COOEt] :: 1.3
C[C@H](NC(=O)OCc1ccccc1)C(=O)N[C@@H](C)C(=O)NN(CC(N)=O)C(=O)[C@@H]1O[C@H]1C(=O)OCc1ccccc1 (relative stereo) [Cbz-Ala-Ala-AAsn-trans-EP-COOCH2Ph] :: 1.09

Item under review: CCOC(=O)[C@@H]1O[C@H]1C(=O)N(CC(C)C)NC(=O)[C@H](CC(C)C)NC(C)=O (relative stereo) [Ac-Leu-ALeu-trans-EP-COOEt] . Reported kinact/KI?
8

* * *

Hi there, I'd appreciate the recorded k2 caspase-3 for every entry that follows.
Target: caspase-3 (Homo sapiens)
Construct: made in house; host or cells: E. coli
Sequence (P42574 29-175 limits assumed): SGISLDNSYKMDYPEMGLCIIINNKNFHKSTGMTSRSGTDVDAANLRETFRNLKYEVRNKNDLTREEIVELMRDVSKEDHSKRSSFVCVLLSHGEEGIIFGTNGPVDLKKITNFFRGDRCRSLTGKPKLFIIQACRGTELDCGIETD
Sequence (P42574 176-277 limits assumed): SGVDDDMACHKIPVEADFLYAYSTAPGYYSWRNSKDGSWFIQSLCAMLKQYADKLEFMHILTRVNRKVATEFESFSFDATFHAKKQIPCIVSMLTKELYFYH
Test: Caspase-3 progress curve assay
Assay type: biochemical
Conditions: substrate Z-DEVD-AFC; NI = no inhibition
Answers are plain numbers, in M⁻¹ s⁻¹.

A selection of reference data follows.
CC(C)[C@H](NC(=O)CCc1ccccc1)C(=O)N[C@@H](C)C(=O)NN(CC(=O)O)C(=O)[C@H]1O[C@@H]1C(=O)N(Cc1ccccc1)Cc1ccccc1 :: 830
CCNC(=O)[C@H]1O[C@@H]1C(=O)N(CC(=O)O)NC(=O)[C@H](C)NC(=O)[C@@H](NC(=O)CCc1ccccc1)C(C)C [23f] :: 1910

Switching to the query record.
State its k2 caspase-3 on caspase-3 (Homo sapiens): CC(C)[C@H](NC(=O)CCc1ccccc1)C(=O)N[C@@H](C)C(=O)NN(CC(=O)O)C(=O)[C@H]1O[C@@H]1C(=O)NC(Cc1ccccc1)C(N)=O (stereo partly drawn) [23l (S,S)]
625

* * *

Hi there, I'd appreciate the recorded k2 caspase-3 for every entry that follows.
Target: caspase-3 (Homo sapiens)
Construct: made in house; host or cells: E. coli
Sequence (P42574 29-175 limits assumed): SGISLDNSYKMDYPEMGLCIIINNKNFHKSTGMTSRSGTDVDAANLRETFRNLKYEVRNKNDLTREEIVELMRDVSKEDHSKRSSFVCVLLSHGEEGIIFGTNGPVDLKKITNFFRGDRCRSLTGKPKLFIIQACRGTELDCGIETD
Sequence (P42574 176-277 limits assumed): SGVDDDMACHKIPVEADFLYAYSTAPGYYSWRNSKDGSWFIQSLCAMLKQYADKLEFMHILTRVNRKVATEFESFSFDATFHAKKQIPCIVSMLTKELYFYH
Experiment: Caspase-3 progress curve assay
Format: biochemical
Conditions: substrate Z-DEVD-AFC; NI = no inhibition
Give bare numbers, in M⁻¹ s⁻¹.

A selection of reference data follows.
CCOC(=O)[C@H]1O[C@@H]1C(=O)N(CC(=O)O)NC(=O)[C@@H](NC(=O)[C@H](CCC(=O)O)NC(=O)[C@@H](NC(=O)OCc1ccccc1)[C@@H](C)CC)[C@@H](C)O [27c (S,S)] :: 4080
CC(C)[C@H](NC(=O)OCc1ccccc1)C(=O)NN(CC(=O)O)C(=O)[C@@H]1O[C@H]1c1ccc(Cl)cc1 (relative stereo) [22b] :: 145

Switching to the query record.
Item under review: "CCCCN(CCCC)C(=O)[C@H]1O[C@@H]1C(=O)N(CC(=O)O)NC(=O)[C@H](C)NC(=O)[C@@H](NC(=O)CCc1ccccc1)C(C)C" . Reported k2 caspase-3?
520

* * *

target: caspase-1 (Homo sapiens, UniProt P29466, D381E); construct: His tag (N); made in house; host or cells: E. coli; test: Caspase-1 progress curve assay; type: biochemical; conditions: D381E variant, substrate Ac-YVAD-AMC, 30° C.
Sequence (P29466 120-297 limits assumed): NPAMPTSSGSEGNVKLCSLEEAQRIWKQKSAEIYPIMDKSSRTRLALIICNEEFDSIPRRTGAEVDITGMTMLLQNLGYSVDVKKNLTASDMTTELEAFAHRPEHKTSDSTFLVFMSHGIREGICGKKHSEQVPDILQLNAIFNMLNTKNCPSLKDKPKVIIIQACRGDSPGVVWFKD
Sequence (P29466 317-404 D381E limits assumed): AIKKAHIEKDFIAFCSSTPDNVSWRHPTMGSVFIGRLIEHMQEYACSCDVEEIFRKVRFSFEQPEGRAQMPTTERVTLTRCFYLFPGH
Output fulfilled for k2 caspase-1 not less than 20000 M⁻¹ s⁻¹; output not fulfilled otherwise.

Solved cases (6 shown):
CCOC(=O)[C@@H]1O[C@H]1C(=O)N(CC(=O)O)NC(=O)[C@@H](NC(=O)[C@H](CCC(=O)O)NC(=O)[C@@H](NC(=O)OCc1ccccc1)[C@@H](C)CC)[C@@H](C)O [27c (R,R)] :: not fulfilled
CC[C@H](C)[C@H](NC(=O)OCc1ccccc1)C(=O)N[C@@H](CCC(=O)O)C(=O)N[C@H](C(=O)NN(CC(=O)O)C(=O)[C@H]1O[C@@H]1C(=O)OCc1ccccc1)[C@@H](C)O [27d (S,S)] :: fulfilled
CCOC(=O)[C@@H]1O[C@H]1C(=O)N(CC(=O)O)NC(=O)[C@H](C)NC(=O)[C@@H](NC(=O)CCc1ccccc1)C(C)C [23c (R,R)] :: not fulfilled
CC(C)CC(NC(=O)[C@H]1O[C@@H]1C(=O)N(CC(=O)O)NC(=O)[C@H](C)NC(=O)[C@@H](NC(=O)CCc1ccccc1)C(C)C)C(N)=O (stereo partly shown) [23k] :: fulfilled
CC(C)[C@H](NC(=O)[C@H](CCC(=O)O)NC(=O)[C@H](CC(=O)O)NC(=O)OCc1ccccc1)C(=O)NN(CC(=O)O)C(=O)[C@H]1O[C@@H]1C(=O)N[C@@H](Cc1ccccc1)C(N)=O [25l, Cbz-Asp-Glu-Val-AAsp-(S,S)-EP-CO-Phe-NH2] :: not fulfilled
CC(C)[C@H](NC(=O)CCc1ccccc1)C(=O)N[C@@H](C)C(=O)NN(CC(=O)O)C(=O)[C@H]1O[C@@H]1C(=O)NC(Cc1ccc(O)cc1)C(N)=O (stereo partly shown) [23m] :: not fulfilled

Kindly determine if k2 caspase-1 recorded for CCOC(=O)[C@H]1O[C@@H]1C(=O)N(CC(=O)O)NC(=O)[C@@H](NC(=O)[C@H](CCC(=O)O)NC(=O)[C@H](CC(=O)O)NC(=O)OCc1ccccc1)C(C)C [25c (S,S)] is above or exactly 20000 M⁻¹ s⁻¹.
not fulfilled

Kindly determine if k2 caspase-1 recorded for CC(C)[C@H](NC(=O)CCc1ccccc1)C(=O)N[C@@H](C)C(=O)NN(CC(=O)O)C(=O)[C@@H]1O[C@H]1C(=O)NCC(O)c1ccccc1 (stereo partly drawn) [23i (R,R)] is above or exactly 20000 M⁻¹ s⁻¹.
not fulfilled

Kindly determine if k2 caspase-1 recorded for CCOC(=O)[C@H]1O[C@@H]1C(=O)N(CC(=O)O)NC(=O)[C@@H](NC(=O)[C@H](CCC(=O)O)NC(=O)[C@H](CC(C)C)NC(=O)OCc1ccccc1)[C@@H](C)O [26c (S,S)] is above or exactly 20000 M⁻¹ s⁻¹.
fulfilled

* * *

Hi there, I'd appreciate the recorded k2 caspase-3 for every entry that follows.
target: caspase-3 (Homo sapiens, UniProt P42574); construct: made in house; host or cells: E. coli; assay: Caspase-3 progress curve assay; assay type: biochemical; settings: substrate Z-DEVD-AFC; NI = no inhibition
Give bare numbers, in M⁻¹ s⁻¹.

CC(NC(=O)[C@H]1O[C@@H]1C(=O)N(CC(=O)O)NC(=O)[C@H](C)NC(=O)[C@@H](NC(=O)CCc1ccccc1)C(C)C)C(=O)NCc1ccccc1 (stereo partly drawn) [23j (S,S)] :: 260
CC(C)C(NC(=O)OCc1ccccc1)C(=O)NN(CC(=O)O)C(=O)C1OC1CCc1ccccc1 (stereo not drawn) [22a, Cbz-Val-AAsp-(trans)-EP-CH2CH2Ph] :: 310

Item under review: "CC(C)[C@H](NC(=O)CCc1ccccc1)C(=O)N[C@@H](C)C(=O)NN(CC(=O)O)C(=O)[C@H]1O[C@@H]1C(=O)N(C)Cc1ccccc1" . Reported k2 caspase-3?
1950

* * *

molecular target: cathepsin B (Homo sapiens, UniProt P07858); assay: Inhibition of cathepsin B, incubation method; assay type: biochemical; details: second-order rate constant; NI = no inhibition
Hi there, I'd appreciate the recorded kobs/[I] cathepsin B for every entry that follows.
Answers are plain numbers, in M⁻¹ s⁻¹.

A selection of reference data follows.
CCOC(=O)[C@@H]1O[C@H]1C(=O)N(CC(C)C)NC(=O)[C@H](Cc1ccccc1)NC(=O)OCc1ccccc1 (relative stereo) [Cbz-Phe-ALeu-trans-EP-COOEt] :: 3.61
CCOC(=O)[C@@H]1O[C@@H]1C(=O)N(CC(C)C)NC(=O)C(CC(C)C)NC(=O)OCc1ccccc1 (relative stereo) [Cbz-Leu-ALeu-cis-EP-COOEt] :: 6.27
CCOC(=O)[C@H]1O[C@@H]1C(=O)N(CC(C)C)NC(=O)C(CC(C)C)NC(=O)OCc1ccccc1 (stereo partly drawn) :: 1.8
CCOC(=O)[C@H]1O[C@@H]1C(=O)N(CCc1ccccc1)NC(=O)C(CC(C)C)NC(=O)OCc1ccccc1 (stereo partly drawn) :: 0.67
CC(C)[C@H](NC(=O)CCc1ccccc1)C(=O)N[C@@H](C)C(=O)NN(CC(=O)O)C(=O)[C@H]1O[C@@H]1C(=O)OCc1ccccc1 [23d (S,S)] :: 0.81

Item under review: CCOC(=O)C1OC1C(=O)N(CCc1ccccc1)NC(C)=O (stereo not drawn) [Ac-AHph-trans-EP-COOEt] . Reported kobs/[I] cathepsin B?
40.62
